# assayedSystem: purified recombinant human Aggrecanase-1 (rAgg1) (Homo sapiens, UniProt O75173)
# Sequence (O75173 213-837): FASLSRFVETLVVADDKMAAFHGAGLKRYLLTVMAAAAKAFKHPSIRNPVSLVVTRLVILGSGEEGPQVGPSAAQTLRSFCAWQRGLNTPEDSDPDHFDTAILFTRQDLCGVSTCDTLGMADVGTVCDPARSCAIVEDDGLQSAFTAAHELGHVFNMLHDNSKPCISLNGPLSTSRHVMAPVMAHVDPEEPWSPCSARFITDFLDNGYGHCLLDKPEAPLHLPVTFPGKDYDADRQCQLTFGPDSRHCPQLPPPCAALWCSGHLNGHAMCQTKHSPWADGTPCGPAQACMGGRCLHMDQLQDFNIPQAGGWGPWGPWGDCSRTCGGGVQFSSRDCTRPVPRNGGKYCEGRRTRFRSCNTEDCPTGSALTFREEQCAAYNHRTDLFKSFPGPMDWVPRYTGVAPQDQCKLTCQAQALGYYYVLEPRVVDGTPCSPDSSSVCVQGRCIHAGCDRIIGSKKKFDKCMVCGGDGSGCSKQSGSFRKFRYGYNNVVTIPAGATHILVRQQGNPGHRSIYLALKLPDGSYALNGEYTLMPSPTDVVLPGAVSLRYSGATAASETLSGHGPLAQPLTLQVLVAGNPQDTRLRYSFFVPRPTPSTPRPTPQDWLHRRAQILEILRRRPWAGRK
# protocolSummary: In vitro fluorescence screen for Aggrecanase-1 inhibitors
# Assay type: biochemical
# conditionSummary: Table 2; read-out: Agg1 IC50
experimentalReadout: pIC50
In plain terms, pIC50 is the concentration in mol/L turned into minus its base-10 logarithm.

1) O=C(O)CC[C@H](NC(=O)c1ccc(-c2ccc3[nH]ccc3c2)cc1)C(=O)NCC12CC3CC(CC(C3)C1)C2 [Example 17CC]
5.54
2) COc1cc(CNC(=O)[C@H](CCC(=O)O)NC(=O)c2ccc(-c3cc(OC)c(OC)c(OC)c3)cc2)cc(OC)c1OC [Example 17H]
6.00
3) O=C(O)CC[C@H](NC(=O)c1ccc(-c2ccc(OCc3ccccc3)cc2)cc1)C(=O)NCc1ccccc1 [Example 15J]
6.29

Now consider the entry below.
May I ask what pIC50 has been recorded for Cc1cccc(CNC(=O)[C@H](CCC(=O)O)NC(=O)c2ccc(-c3ccc4c(c3)OCO4)cc2)c1 [Example 17NN] ?
6.70

====

# assayedSystem: purified recombinant human Aggrecanase-2 (Ag2t-Phe628-Strep) (Homo sapiens, UniProt Q9UNA0)
# Construct: the form used is denoted as Ag2t-Phe628-Strep (MW=41,737)
# Sequence (Q9UNA0 262-628): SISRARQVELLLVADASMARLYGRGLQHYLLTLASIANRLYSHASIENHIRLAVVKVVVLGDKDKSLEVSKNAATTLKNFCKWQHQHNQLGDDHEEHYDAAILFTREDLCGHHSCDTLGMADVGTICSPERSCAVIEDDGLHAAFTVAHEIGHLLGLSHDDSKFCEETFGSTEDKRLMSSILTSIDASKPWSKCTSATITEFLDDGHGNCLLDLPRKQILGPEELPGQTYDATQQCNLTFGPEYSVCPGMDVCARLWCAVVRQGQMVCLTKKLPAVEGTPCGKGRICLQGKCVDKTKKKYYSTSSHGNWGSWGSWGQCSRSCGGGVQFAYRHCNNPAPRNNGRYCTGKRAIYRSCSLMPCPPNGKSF
# protocolSummary: In vitro fluorescence screen for Aggrecanase-2 inhibitors
# Type: biochemical
# conditionSummary: Table 2; read-out: Agg 2 IC50
experimentalReadout: IC50 (µM)
A number alone suffices; assume µM.

1) CC(C)(Cc1ccc(F)cc1)NC(=O)[C@H](CCC(=O)O)NC(=O)c1ccc(-c2cccc(O)c2)cc1 [Example 17UU]
0.039

May I ask what IC50 has been recorded for CC(C)(Cc1ccccc1)NC(=O)[C@H](CCC(=O)O)NC(=O)c1ccc(-c2ccc(CO)cc2)cc1 [Example 17SS] ?
3.96

May I ask what IC50 has been recorded for CC(C)(Cc1ccc(F)cc1)NC(=O)[C@H](CCC(=O)O)NC(=O)c1ccc(-c2ccc(O)cc2)cc1 [Example 17OO] ?
1.68

May I ask what IC50 has been recorded for CC(NC(=O)[C@H](CCC(=O)OC(C)(C)C)NC(=O)c1ccc(-c2ccccc2)cc1)c1ccccc1 (some centres unmarked) ?
2.47

May I ask what IC50 has been recorded for O=C(O)CC[C@H](NC(=O)c1ccc(-c2ccccc2)cc1)C(=O)NC1c2ccccc2-c2ccccc21 ?
2.8

May I ask what IC50 has been recorded for COc1cc(COc2ccc(-c3ccc(C(=O)N[C@@H](CCC(=O)O)C(=O)NC(C)(C)Cc4ccccc4)cc3)cc2)cc(OC)c1 [Example 19C] ?
0.075

May I ask what IC50 has been recorded for COc1cc(CNC(=O)[C@H](CCC(=O)O)NC(=O)c2ccc(-c3cccc(C(C)C)c3)cc2)cc(OC)c1OC [Example 17Z] ?
3.14

May I ask what IC50 has been recorded for CC(C)Cc1ccc(-c2ccc(C(=O)N[C@@H](CCC(=O)O)C(=O)NC(C)(C)Cc3ccc(F)cc3)cc2)cc1 [Example 17HH] ?
6.32

====

# assayedSystem: purified recombinant human Aggrecanase-1 (rAgg1) (Homo sapiens, UniProt O75173)
# protocolSummary: In vitro fluorescence screen for Aggrecanase-1 inhibitors
# Format: biochemical
# conditionSummary: Table 1; read-out: Agg1 IC50
List of pIC50 values.
In plain terms, pIC50 is the concentration in mol/L turned into minus its base-10 logarithm.

Worked cases, answers included:
1. O=C(O)CC[C@H](NC(=O)c1ccc(-c2ccccc2)cc1)C(=O)NCc1cccc(I)c1
7.35
2. CC(=O)Nc1ccc(-c2ccc(C(=O)N[C@@H](CCC(=O)O)C(=O)O)cc2)cc1
5.52
3. CC(C)(CO)NC(=O)[C@H](CCC(=O)O)NC(=O)c1ccc(-c2ccccc2)cc1
6.52
4. O=C(O)CC[C@H](NC(=O)c1ccc(-c2cccnc2)cc1)C(=O)NCc1ccccc1 [Example 12C]
4.60
5. O=C(O)CC[C@H](NC(=O)c1ccc(-c2ccccc2)cc1)C(=O)NC1CCCCC1
6.82
6. O=C(O)CC[C@H](NC(=O)c1ccc(-c2ccccc2)cc1)C(=O)NCC1C2CC3CC(C2)CC1C3 (stereo partly shown)
6.30
7. COc1cc(CNC(=O)[C@H](CCC(=O)O)NC(=O)c2ccc(-c3ccccc3)cc2)cc(OC)c1
7.66
8. O=C(O)CC[C@H](NC(=O)c1ccc2ccccc2c1)C(=O)NCCCc1ccccc1
5.44
9. O=C(O)CC[C@H](NC(=O)c1ccc(-c2ccc(NC(=O)Cc3ccccc3)cc2)cc1)C(=O)O
5.30
10. O=C(O)CC[C@H](NC(=O)c1ccc(-c2ccccc2)cc1)C(=O)NCc1cccc2ccccc12
6.54

May I ask what pIC50 has been recorded for CC(C)NC(=O)[C@H](CCC(=O)O)NC(=O)c1ccc(-c2ccccc2)cc1 ?
6.89

May I ask what pIC50 has been recorded for O=C(O)CC[C@H](NC(=O)c1ccc(-c2ccccc2)cc1)C(=O)NCC1CC1 ?
7.00

May I ask what pIC50 has been recorded for O=C(O)CC[C@H](NC(=O)c1ccc(-c2ccccc2)cc1)C(=O)NCc1cccc(-c2ccc(C(F)(F)F)cc2)c1 [Example 10O] ?
6.33

May I ask what pIC50 has been recorded for O=C(O)CC[C@H](NC(=O)c1ccc(-c2ccccc2)cc1)C(=O)NCCc1ccc(-c2ccncc2)cc1 [Example 10H] ?
6.52

====

# assayedSystem: recombinant human MMP-2 (Homo sapiens)
# Sequence (P08253 110-660): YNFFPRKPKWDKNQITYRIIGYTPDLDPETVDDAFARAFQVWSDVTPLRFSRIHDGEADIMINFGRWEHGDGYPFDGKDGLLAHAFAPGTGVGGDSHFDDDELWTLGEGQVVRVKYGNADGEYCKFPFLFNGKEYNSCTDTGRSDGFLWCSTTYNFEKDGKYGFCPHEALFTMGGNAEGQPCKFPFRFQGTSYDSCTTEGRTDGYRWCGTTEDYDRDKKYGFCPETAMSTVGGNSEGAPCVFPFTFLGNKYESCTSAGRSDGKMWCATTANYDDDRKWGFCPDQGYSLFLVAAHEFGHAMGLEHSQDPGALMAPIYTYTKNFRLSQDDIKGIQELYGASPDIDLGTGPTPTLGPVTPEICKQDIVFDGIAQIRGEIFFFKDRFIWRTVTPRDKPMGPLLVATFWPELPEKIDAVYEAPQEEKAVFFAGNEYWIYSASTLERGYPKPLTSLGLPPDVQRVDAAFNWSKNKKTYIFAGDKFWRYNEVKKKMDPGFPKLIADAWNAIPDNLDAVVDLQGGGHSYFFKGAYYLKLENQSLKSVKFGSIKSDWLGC
# protocolSummary: In vitro fluorescence assay of MMP-2 activity
List of IC50 values.

Worked cases, answers included:
1. C=Cc1ccc(CNC(=O)[C@H](CCC(=O)O)NC(=O)c2ccc(-c3ccccc3)cc2)cc1 [Example 10R]
> 20 µM
2. COc1ccc(CCNC(=O)[C@H](CCC(=O)O)NC(=O)c2ccc(-c3ccccc3)cc2)cc1OC
10.5 µM
3. O=C(O)CC[C@H](NC(=O)c1ccc(-c2ccccc2)cc1)C(=O)NC1Cc2ccccc2C1
29.8 µM
4. CCCCCCNC(=O)[C@H](CCC(=O)O)NC(=O)c1ccc(-c2ccccc2)cc1
5.6 µM
5. CN(C)c1ccc(CNC(=O)[C@H](CCC(=O)O)NC(=O)c2ccc(-c3ccccc3)cc2)cc1
13 µM

Notebook entry, recombinant human MMP-2 (Homo sapiens) assay: IC50 of CC(C)(Cc1ccccc1)NC(=O)[C@H](CCC(=O)O)NC(=O)c1ccc(-c2ccccc2)cc1 = ?
6 µM

Notebook entry, recombinant human MMP-2 (Homo sapiens) assay: IC50 of O=C(O)CC[C@H](NC(=O)c1ccc(-c2ccccc2)cc1)C(=O)NC1CCCCCCC1 = ?
3.7 µM

Notebook entry, recombinant human MMP-2 (Homo sapiens) assay: IC50 of C=Cc1cccc(CNC(=O)[C@H](CCC(=O)O)NC(=O)c2ccc(-c3ccccc3)cc2)c1 [Example 10M] = ?
> 20 µM

====

# assayedSystem: purified recombinant human Aggrecanase-1 (rAgg1) (Homo sapiens)
# protocolSummary: In vitro fluorescence screen for Aggrecanase-1 inhibitors
# Type: biochemical
# conditionSummary: Table 3; read-out: Agg1 IC50
List of IC50 values.

Worked cases, answers included:
1. CC(C)(Cc1ccc(Cl)cc1)NC(=O)[C@H](CCC(=O)O)NC(=O)c1ccc(-c2ccc(C=O)s2)cc1
< 0.03 µM
2. CC(C)(Cc1ccccc1)NC(=O)[C@H](CCC(=O)O)NC(=O)c1ccc(-c2cc(F)cc(F)c2)cc1
0.05 µM
3. COc1cccc(COc2cccc(-c3ccc(C(=O)N[C@@H](CCC(=O)O)C(=O)NCc4cc(OC)c(OC)c(OC)c4)cc3)c2)c1 [Example 15M]
< 0.03 µM

Notebook entry, purified recombinant human Aggrecanase-1 (rAgg1) (Homo sapiens) assay: IC50 of CC(C)(Cc1ccc(Cl)cc1)NC(=O)[C@H](CCC(=O)O)NC(=O)c1sccc1-c1ccccc1 = ?
> 25 µM

Notebook entry, purified recombinant human Aggrecanase-1 (rAgg1) (Homo sapiens) assay: IC50 of CC(C)(Cc1ccc(Cl)cc1)NC(=O)[C@H](CCC(=O)O)NC(=O)c1ccc(-c2ccc(F)c(F)c2)cc1 = ?
< 0.03 µM

Notebook entry, purified recombinant human Aggrecanase-1 (rAgg1) (Homo sapiens) assay: IC50 of CC(C)(Cc1ccc(Cl)cc1)NC(=O)[C@H](CCC(=O)O)NC(=O)c1ccc(-c2ccc(Cl)cc2)cc1 = ?
< 0.03 µM

Notebook entry, purified recombinant human Aggrecanase-1 (rAgg1) (Homo sapiens) assay: IC50 of COc1cc(OC)cc(OCc2cccc(-c3ccc(C(=O)N[C@@H](CCC(=O)O)C(=O)NCc4cccc(C)c4)cc3)c2)c1 [Example 15R] = ?
0.56 µM
